Target: T1, mouse DKK1 (R&D Systems) (mouse, UniProt O54908 32-272)
T1 construct: Bought protein
T1 sequence (looked up): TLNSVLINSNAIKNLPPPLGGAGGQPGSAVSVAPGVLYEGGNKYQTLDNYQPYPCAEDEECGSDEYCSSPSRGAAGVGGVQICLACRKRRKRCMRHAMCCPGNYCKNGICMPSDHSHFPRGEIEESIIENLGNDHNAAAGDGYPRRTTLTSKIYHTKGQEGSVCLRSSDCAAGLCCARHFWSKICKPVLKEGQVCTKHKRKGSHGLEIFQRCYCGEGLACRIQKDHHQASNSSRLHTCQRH
Assay: SPR (Biacore), DKK1 immobilised on CM5 chip, Fab as analyte
Method: Using these clones, kinetic SPR analysis is performed on a. […] The Fab preparations are applied in concentration series of 16-500 nM at a flow rate of 20 μl/min. Association phase is set to 60 s and dissociation phase to 120 s.
Each record here notes measured Kd.

BINDER	Kd, nM
MOR04516 (Fab, V domains shown, Fab with C-terminal FLAG and 6xHis tags; also called MOR4516) VH: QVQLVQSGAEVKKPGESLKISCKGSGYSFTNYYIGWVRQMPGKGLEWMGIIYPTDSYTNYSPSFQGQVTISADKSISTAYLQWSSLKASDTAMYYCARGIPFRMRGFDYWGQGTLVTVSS VL: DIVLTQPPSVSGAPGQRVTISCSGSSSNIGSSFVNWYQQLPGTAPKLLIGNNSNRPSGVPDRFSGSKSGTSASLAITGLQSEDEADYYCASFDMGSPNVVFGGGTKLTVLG	2.4
MOR04456 (Fab, V domains shown, Fab with C-terminal FLAG and 6xHis tags) VH: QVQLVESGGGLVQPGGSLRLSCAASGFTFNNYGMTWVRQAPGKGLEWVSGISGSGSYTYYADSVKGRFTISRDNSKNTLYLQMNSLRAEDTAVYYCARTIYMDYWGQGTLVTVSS VL: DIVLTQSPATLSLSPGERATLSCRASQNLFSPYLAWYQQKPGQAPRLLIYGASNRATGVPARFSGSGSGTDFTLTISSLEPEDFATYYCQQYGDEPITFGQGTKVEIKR	11.6
